test: NCI Yeast Anticancer Drug Screen. Data for the mlh1 strain (AID 171); details: S. cerevisiae mlh1 strain growth inhibition; at 100.0 µM
The panel holds about 79,000 compounds, 15% with a hit somewhere; the sample as a whole holds those more often. Active and inactive are the calls of the source. Cut-off read from the data, not from the text of the source: active = growth inhibition above about 70%; inactive = the rest.
Outcomes: y for active, n for inactive

compound | discrete_label
CCn1ncc(N=O)c1N | n
N#C/C(=C1C=C/C(=N/O)c2ccccc2/1)c1ccccc1 | n
Nc1nc2c(c(=O)[nH]1)NC(CCNc1ccc(C(=O)O)cc1)CN2 (stereo unspecified) | n
CC(=O)CC(=O)/C=C/c1cccs1 | y
CC(=O)N1C(=O)/C(=C\C(=O)c2ccc([N+](=O)[O-])cc2)c2ccccc21 | y
O=C1c2c(O)cccc2-c2nn(CCNCCO)c3ccc(NCCNCCO)c1c23 | n
CN(C)CCN1C(=O)c2cccc3cc([N+](=O)[O-])cc(c23)C1=O | n
CC1CCC2(C(=O)O)CCC3(C)C(=CCC4C5(C)CC(O)C(O)C(C)(CO)C5C(O)CC43C)C2C1C (stereo unspecified) | y
CC(=O)c1cc2c(Cl)cc(Cl)cc2oc1=O | n
CCc1nc(N)nc(N)c1-c1ccc(NCCCCCCN)c([N+](=O)[O-])c1 | n
O=C(N/N=C\c1c(Cl)cccc1Cl)N/N=C/c1c(Cl)cccc1Cl | n
O=C(/C=C/c1cccc2ccccc12)c1ccc(Cl)cc1 | n
O/N=C/C1c2ccccc2-c2ccccc21 | n
COc1ccc(S(=O)(=O)N/N=C\c2cc([N+](=O)[O-])cc(I)c2O)c(OC)c1OC | y
CCOc1ccc(C(=O)CCC(=O)O)c(C)c1 | n
Cc1cc(Cl)nc2nc(Cl)c(N)cc12 | y
